Target: SOS1 catalytic domain (residues 564-1049) (Homo sapiens, UniProt Q07889)
Sequence (Q07889 564-1049): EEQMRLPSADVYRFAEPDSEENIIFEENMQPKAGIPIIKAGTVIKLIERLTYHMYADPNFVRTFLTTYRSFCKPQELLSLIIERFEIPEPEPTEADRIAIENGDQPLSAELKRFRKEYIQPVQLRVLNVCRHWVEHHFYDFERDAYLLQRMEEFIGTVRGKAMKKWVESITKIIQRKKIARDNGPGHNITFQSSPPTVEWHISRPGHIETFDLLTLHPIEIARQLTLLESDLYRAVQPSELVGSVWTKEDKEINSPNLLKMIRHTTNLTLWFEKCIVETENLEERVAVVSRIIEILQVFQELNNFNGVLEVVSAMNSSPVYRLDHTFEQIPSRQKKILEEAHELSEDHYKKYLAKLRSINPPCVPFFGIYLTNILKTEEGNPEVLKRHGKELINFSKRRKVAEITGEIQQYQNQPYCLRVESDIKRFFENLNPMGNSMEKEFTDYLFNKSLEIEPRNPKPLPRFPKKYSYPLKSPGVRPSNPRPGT
Counter-ions that a name gives are not always drawn.
Test Readout: Kd

>>> recorded_result("COC1(C(=O)N2Cc3nc(Cl)nc(N[C@H](C)c4cc(N)cc(C(F)(F)F)c4)c3C2)CCOCC1")
"< 400 nM"
>>> recorded_result("C[C@@H](Nc1nc(Cl)nc2c1CN(C(=O)[C@]13CN[C@H](CO1)C3)C2)c1cccc(C(F)F)c1F")
"< 400 nM"
>>> recorded_result("C[C@@H](Nc1nc(Cl)nc2c1CN(C(=O)[C@@H]1CNCCO1)C2)c1cccc(C(F)F)c1F")
"< 400 nM"
>>> recorded_result("COC1CN([C@H]2CCc3nc(Cl)nc(N[C@H](C)c4cc(N)cc(C(F)(F)F)c4)c3C2)C1")
"< 400 nM"
>>> recorded_result("C[C@@H](Nc1nccc2nc(C(=O)N3CCNCC3)cn12)c1cccc(C(F)F)c1F [Example 530, hydrochloride]")
"< 400 nM"
>>> recorded_result("C[C@@H](Nc1nc(Cl)nc2c1CN(C(=O)c1ncccn1)C2)c1cc(N)cc(C(F)(F)F)c1")
"> 400 nM"
>>> recorded_result("C[C@@H](Nc1nc(Cl)nc2c1CN(S(=O)(=O)C1CCOC1)CC2)c1cc(N)cc(C(F)(F)F)c1 (stereo partly drawn)")
"< 400 nM"
>>> recorded_result("C[C@@H](Nc1nc(Cl)nc2c1CN(C(=O)CC1COCCN1)C2)c1cccc(C(F)F)c1F (stereo partly drawn)")
"> 400 nM"
>>> recorded_result("C[C@@H](Nc1nc(C2CNC2)nc2c1CN(C(=O)N1CCOCC1)C2)c1cccc(C(F)F)c1F")
"< 400 nM"
>>> recorded_result("CNc1nc2c(c(N[C@H](C)c3cccc(C(F)F)c3F)n1)CN(C(=O)N1CCOCC1)C2")
"> 400 nM"

For every item in the list below, what is its measured Kd?
1. C[C@@H](Nc1nc(Cl)nc2c1CN(C(=O)OC1CCOCC1)C2)c1cc(N)cc(C(F)(F)F)c1
2. C[C@@H](Nc1nc(Cl)nc2c1CN(C(=O)c1cnc[nH]1)C2)c1cc(N)cc(C(F)(F)F)c1
3. C[C@@H](Nc1nc(Cl)nc2c1CN(C(=O)C1CCNCC1F)C2)c1cccc(C(F)F)c1F (stereo partly drawn)
4. C[C@@H](Nc1nc(Cl)nc2c1CN(C(=O)[C@@H]1COCCN1)C2)c1cccc(C(F)(F)F)c1
5. COC1(C(=O)N2Cc3nc(Cl)nc(N[C@H](C)c4cccc(C(F)(F)CO)c4)c3C2)COC1

1. < 400 nM
2. < 400 nM
3. < 400 nM
4. > 400 nM
5. < 400 nM
